Data credit: PubChem BioAssay

- target.system: Tumor necrosis factor receptor superfamily member 10B (Homo sapiens)
- run.description: caspase-8 TRAIL sensitization, hit retest, confirmation, cell-based, NB7+caspase-8, with/without TRAIL, luminescence panel (AID 651596)
- applied.conditions: NB7 neuroblastoma + caspase-8, TRAIL sensitization, luminescence viability, with TRAIL, mean of runs, at 10 µM, stronger effect = higher value
Hi! Could you tag entries with activity below 80% as TRUE, and those at or above as FALSE? Much appreciated.

line.notation	target.system	answer.label
Cc1ccc(C(=O)N/C(=C\c2ccc(-c3ccccc3[N+](=O)[O-])o2)C(=O)NCCCN2CCOCC2)cc1	Tumor necrosis factor receptor superfamily member 10B (Homo sapiens)	TRUE
Cc1[nH]nc2nc(SCC(=O)NCCC3=CCCCC3)n(-c3ccc(Br)cc3)c(=N)c12	Tumor necrosis factor receptor superfamily member 10B (Homo sapiens)	TRUE
O=C(Nc1cc(C(F)(F)F)cc(C(F)(F)F)c1)Nc1cnn(-c2ccc([N+](=O)[O-])cc2)c1C(F)(F)F	Tumor necrosis factor receptor superfamily member 10B (Homo sapiens)	TRUE
O=C(CSC(=S)N1CCOCC1)c1ccccc1	Tumor necrosis factor receptor superfamily member 10B (Homo sapiens)	TRUE
CCC(=O)Nc1ccc(C(=O)Cn2ncc(Cl)c(Cl)c2=O)cc1	Tumor necrosis factor receptor superfamily member 10B (Homo sapiens)	FALSE

Consider the molecule COc1ccc(/C(N)=N/OC(=O)c2ccc(OC)c([N+](=O)[O-])c2)cc1OC . Is its activity strictly less than 80%?
FALSE

# TODO verify activity < 80% strictly for this molecule: S=C(Nc1ccc(Cl)cc1)c1nc2ccccc2[nH]1
TRUE

Lab note: confirm whether the reported activity for this molecule is below 80%, equality not counting. molecule: Clc1cccc(-c2nc(-c3ccccn3)no2)c1
FALSE

* * *

- run.description: inhibition of Brca1/Bard1 split-luciferase complementation, confirmation, counter-screen for Mdm2/MdmX interaction inhibitor project, luminescence, single concentration (AID 504668)
- applied.conditions: Brca1/Bard1 bimolecular luciferase complementation counterscreen, at 8 µM, stronger effect = higher value
measure.name: inhibition (%)
Value expressed in %; do not type the unit.

Reference set (2 entries):
Nc1nonc1-n1nnc(C(=O)N/N=C/c2cc(Br)ccc2O)c1CNc1ccccc1 30.5
C(=N\Nc1nncc2ccccc12)/c1ccccn1 29.9

Which inhibition reading was recorded for the compound O=C(Nc1nc(-c2ccccn2)cs1)c1ccccc1-n1cnnn1 ?
29.6

* * *

- target.system: PEG-3 (UniProt Q6IN02)
- Sequence (Q6IN02 whole entry, looked up): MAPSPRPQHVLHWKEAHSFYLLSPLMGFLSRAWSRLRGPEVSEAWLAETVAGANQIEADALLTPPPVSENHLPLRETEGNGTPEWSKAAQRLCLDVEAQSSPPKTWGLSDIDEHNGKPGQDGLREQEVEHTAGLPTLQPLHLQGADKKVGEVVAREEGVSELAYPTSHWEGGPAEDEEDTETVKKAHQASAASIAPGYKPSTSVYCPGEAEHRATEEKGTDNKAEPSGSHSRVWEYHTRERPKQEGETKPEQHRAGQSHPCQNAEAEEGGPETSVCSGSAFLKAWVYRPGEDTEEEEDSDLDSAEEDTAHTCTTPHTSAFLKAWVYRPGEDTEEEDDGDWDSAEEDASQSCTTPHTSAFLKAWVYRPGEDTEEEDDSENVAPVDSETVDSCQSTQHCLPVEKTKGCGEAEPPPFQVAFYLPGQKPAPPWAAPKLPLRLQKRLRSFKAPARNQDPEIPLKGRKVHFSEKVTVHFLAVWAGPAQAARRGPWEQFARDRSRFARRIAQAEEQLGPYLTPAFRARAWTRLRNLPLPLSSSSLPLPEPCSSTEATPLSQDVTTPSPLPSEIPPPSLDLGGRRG
- run.description: Peg3 promoter luciferase inhibitors, potency, dose response, cell-based, HeLa, CREF/GAPDH counter-screen panel (AID 624167)
- applied.conditions: CREF/GAPDH counter-screens; HeLa PEG-Prom luciferase reporter, overnight, run 2, dose range 1, at 100 µM (top of the series) unless noted
measure.name: inhibition

See these solved cases before continuing.
compound	val
CC1=CC(C)[C@H](/C=N/n2c(=O)[nH]c3c([nH]c4ccc(Br)cc43)c2=O)C(C)C1 (stereo partly specified)	77.5% [run 2, dose range 1, at 12.5 µM]
CC(C)CC(N)c1csc(NC(=O)Nc2ccccc2C(C)(C)C)n1 (stereo unspecified)	101%
COCCn1c(C)cc(C(=O)COC(=O)c2cccc(O)c2)c1C	91.3%
NC(=O)c1nsc(C(=O)N(c2ccccc2F)C(C(=O)NCc2ccccc2)c2ccc(O)cc2)c1N (stereo unspecified)	99.3%
COc1cc(NC(=O)c2c(F)c(F)c(F)c(F)c2F)c(OC)cc1Cl	96.5%
c1ccc(-c2nc(-c3ccccn3)no2)cc1	91.1%

Any idea what its inhibition is? The compound is O=C(Nc1ccc(Cc2ccncc2)cc1)c1ccc([N+](=O)[O-])o1
101%

So what does the record say about inhibition for CCCCC(=O)NC(c1ccccc1)c1ccc2cccnc2c1O (stereo unspecified) ?
93.6%

So what's the measured inhibition for this one? CC(=O)c1ccc(Nc2cc(C)nc3ccc(C)cc23)cc1
102%

Item under review: CN(Cc1ccccc1F)C(=O)C(Cc1ccccc1)NC(=O)c1ccccc1 (stereo unspecified) . Reported inhibition?
95.1%

Given the entry O=C(CCn1cnc(-c2ccccc2)c1-c1ccccc1)N/N=C/c1ccccc1O , report its measured inhibition.
101%

Please report the recorded inhibition for CSc1ccc(CN(C)C(=O)C(Cc2ccccc2)NC(=O)c2ccccc2)cc1 (stereo unspecified) .
96.7%

Can you share its inhibition? I mean this compound: COCCCNC(=O)c1ccc(Cn2c(=O)c3ccccc3n(Cc3ccccc3C#N)c2=O)cc1
64%

I am curious: what inhibition value has been reported for CCN1CCN(c2ccc(S(=O)(=O)N3CCOCC3)cc2NC(=O)/C=C/c2ccc([N+](=O)[O-])cc2)CC1 ?
89.1%

What measured inhibition goes with CN(C)CCCN(C(=O)c1ccc(S(=O)(=O)N(C)Cc2ccccc2)cc1)c1nc2cc3c(cc2s1)OCO3 ?
99.3%

Look up inhibition for this compound: CCOc1ccc2[nH]c3c(NCCc4ccc(OC)c(OC)c4)ncnc3c2c1
100%
